measured-on: human orexin 2 receptor (Homo sapiens)
Construct: stably expressing the full-length human orexin 2 receptor; expressed in transfected cells; host or cells: CHO-K1 (CHO-K1/hOX2), co-expressing aequorin
Sequence (O43614 1-444): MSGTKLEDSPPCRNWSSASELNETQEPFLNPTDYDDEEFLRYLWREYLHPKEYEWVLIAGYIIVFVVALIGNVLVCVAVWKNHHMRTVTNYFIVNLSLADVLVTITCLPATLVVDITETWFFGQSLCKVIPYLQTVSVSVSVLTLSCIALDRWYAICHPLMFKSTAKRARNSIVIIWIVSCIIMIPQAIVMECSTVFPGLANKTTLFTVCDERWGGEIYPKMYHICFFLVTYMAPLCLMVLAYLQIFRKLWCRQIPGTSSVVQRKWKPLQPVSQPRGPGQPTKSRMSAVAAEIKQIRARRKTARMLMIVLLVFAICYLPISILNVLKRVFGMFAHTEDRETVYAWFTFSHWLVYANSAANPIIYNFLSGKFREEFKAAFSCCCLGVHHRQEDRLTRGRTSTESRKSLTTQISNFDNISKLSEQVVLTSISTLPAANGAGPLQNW
assay-name: Assay B: In vitro testing of OX2R potency: OX2R IP1 (HTRF, CHO-K1/hOX2 cells, Orexin A as agonist)
Type: cell-based
experimental-setup: Orexin A 0.5 nM
Note to self: Kb under 50 nM means met, ties and anything higher get not met.

compound: CCN(C(=O)c1ccc(F)cc1-n1nccn1)[C@@H](C)COc1ccc(Cl)cn1
qualitative-label: not met
--
compound: CCN(C(=O)c1cccc(C)c1-c1nnc(C)o1)[C@@H](C)COc1ncc(C(F)(F)F)cc1F
qualitative-label: not met
--
compound: CCN(C(=O)c1cccc(F)c1-n1nccn1)[C@@H](C)COc1ccc(C(F)(F)F)cn1
qualitative-label: met
--
compound: CCN(C(=O)c1ccc(F)cc1-n1nccn1)[C@@H](C)COc1ncc(C(F)(F)F)cc1F
qualitative-label: not met
--
compound: CCN(C(=O)c1ccccc1-c1ccc(=O)n(C)c1)[C@@H](C)COc1ccc(C(F)(F)F)cn1
qualitative-label: not met
--
compound: CCN(C(=O)c1ccc(F)cc1-c1nnc(C)o1)[C@@H](C)COc1ncc(C(F)(F)F)cc1F
qualitative-label: not met

Bench note: check whether CCN(C(=O)c1c(F)cccc1-n1nccn1)[C@@H](C)COc1ncc(C(F)(F)F)cc1F shows Kb below 50 nM
not met

What do you have for CCN(C(=O)c1ccccc1-n1nccn1)[C@@H](C)COc1ccc(Cl)cn1 ?
met

Subsequent entry: CCN(C(=O)c1cc(F)ccc1-c1ncccn1)[C@@H](C)COc1ccc(Br)cn1
met

// next record CCN(C(=O)c1ccccc1-c1noc(C)n1)[C@@H](C)COc1ccc(C(F)(F)F)cn1
met
